The entries below come with measured Papp B→A values attached.
TEST_DESCRIPTION: Caco-2 membrane permeability assay
Type: in vitro ADME
CONDITION_CONTEXT: human; Caco-2, apical pH 6.5, basolateral pH 7.4

INSERT INTO results (compound, parameter_measured, recorded_measurement) VALUES
  ('Cc1c(CO)c(N)nc2cc(F)c(C(=O)N(C)C3COCc4nc(C(F)(F)F)ccc43)cc12 (racemic) [Compound A10]', 'Papp B→A', '31 ×10⁻⁶ cm/s'),
  ('Cc1c(CO)c(N)nc2cc(F)c(C(=O)N(C)C3COc4cc(C(F)(F)F)ccc43)cc12 (racemic) [Compound A9]', 'Papp B→A', '5.9 ×10⁻⁶ cm/s');

With those in mind, consider the next compound.
Looking up Cc1c(CO)c(N)nc2cc(F)c(C(=O)N(C)[C@@H]3COc4cc(C(F)(F)F)ccc43)cc12 [Compound A9a] , I see its Papp B→A listed as 10.8 ×10⁻⁶ cm/s

###

TEST_DESCRIPTION: Pharmacokinetic evaluation in mice (IV and oral)
CONDITION_CONTEXT: female, CD1, mouse, in vivo, iv, 2 mg/kg
PARAMETER_MEASURED: C0 (ng/mL)
Just the number please, in ng/mL, no unit attached.

Looking up Cc1c(CO)c(N)nc2cc(F)c(C(=O)N(C)[C@@H]3COc4cc(C(F)(F)F)ccc43)cc12 [Compound A9a] , I see its C0 listed as 4010

###

The entries below come with measured IC50 values attached.
System: HCT116-MTAPdel
TEST_DESCRIPTION: 2D anti-proliferation assay (CTG luminescence), MTAP-deficient HCT116 cells
Type: cell-based
CONDITION_CONTEXT: Homo sapiens, HCT-116, read-out: HCT116-MTAPdel/IC50/nM
Just the number please, in nM, no unit attached.

INSERT INTO assay_data (molecule, parameter_measured, recorded_measurement) VALUES
  ('Cc1cc2cc(C(=O)N(Cc3ccc(C(F)(F)F)cn3)[C@H](C)c3ncccn3)ccc2nc1N [AM9747, reference compound]', 'IC50', 7);

Looking up Cc1cc(NC(=O)C(=O)N2C[C@@H](C)CC[C@@H]2c2ccc3scnc3c2)cnc1N [TNG908, reference compound] , I see its IC50 listed as 54

###

System: HCT116-MTAPdel
TEST_DESCRIPTION: 2D anti-proliferation assay (CTG luminescence), MTAP-deficient HCT116 cells
Format: cell-based
CONDITION_CONTEXT: ratio of IC50 HCT116 WT / MTAPdel
PARAMETER_MEASURED: HCT116 WT/MTAPdel Selectivity

Examples from the recorded data:
INSERT INTO results (compound, recorded_measurement) VALUES
  ('C[C@H]1COC[C@@H](c2ccc(C(F)(F)F)cn2)N1C(=O)c1cc2cc(C3CC3)c(N)nc2cc1F [Compound P2]', '>108'),
  ('C[C@H]1COC[C@@H](c2ccc(C(F)(F)F)cn2)N1C(=O)c1ccc2nc(N)c(C3CC3)cc2c1', '>13'),
  ('Cc1c(CO)c(N)nc2cc(F)c(C(=O)N(C)[C@H]3COCc4nc(-c5cncc(F)c5)ccc43)cc12 (racemic)', 90),
  ('Cc1c(CO)c(N)nc2cc(F)c(C(=O)N(C)C3COCc4nc(C(F)(F)F)ccc43)cc12 (racemic)', '>556'),
  ('Cc1cc(NC(=O)C(=O)N2C[C@@H](C)CC[C@@H]2c2ccc3scnc3c2)cnc1N [TNG908, reference compound]', 23);

Looking up CN(C(=O)c1ccc2nc(N)c(C3CC3)cc2c1)C1COCc2nc(C(F)(F)F)ccc21 (stereo not shown) , I see its HCT116 WT/MTAPdel Selectivity listed as >11

Looking up Cc1c(CO)c(N)nc2cc(F)c(C(=O)N3CC(C)CCC3c3ccc4ncsc4c3)cc12 (racemic) , I see its HCT116 WT/MTAPdel Selectivity listed as 13
